Documented pest or weed control at 200 ppm across a set of compounds
# Tested on: Magnaporthe grisea (Pyricularia oryzae)
# assay details: whole plant or invertebrate
# Assay type: in vivo
# condition: foliar, read-out: control of Magnaporthe grisea (percent disease control compared to untreated)

**Q:** Find the recorded pest or weed control at 200 ppm belonging to COc1ccc(Nc2cc(F)cc(F)c2)nc1C(=O)NCc1ccc(Oc2ccccc2)cc1 [Compound P-57] and report it.
**A:** ≥ 80%

**Q:** Find the recorded pest or weed control at 200 ppm belonging to COc1ccc(Nc2cc(Cl)cc(Cl)c2)nc1C(=O)NC(C)(C)C [Compound P-148] and report it.
**A:** ≥ 80%

**Q:** Find the recorded pest or weed control at 200 ppm belonging to COc1ccc(Nc2cc(F)cc(F)c2)nc1C(=O)NC1(C)COC1 [Compound P-128] and report it.
**A:** ≥ 80%

**Q:** Find the recorded pest or weed control at 200 ppm belonging to CC(C)Oc1ccc(Nc2cc(F)cc(F)c2)nc1C(=O)NC1CCC1(C)C (stereo not shown) [Compound P-87] and report it.
**A:** ≥ 80%

**Q:** Find the recorded pest or weed control at 200 ppm belonging to COc1ccc(Nc2cc(F)cc(F)c2)[n+]([O-])c1C(=O)NC(C)(C)C [Compound P-117] and report it.
**A:** ≥ 80%

**Q:** Find the recorded pest or weed control at 200 ppm belonging to COc1ccc(Nc2cc(F)cc(F)c2)nc1C(=O)NC(C)c1ncc(C)o1 (stereo not shown) [Compound P-71] and report it.
**A:** ≥ 80%

**Q:** Find the recorded pest or weed control at 200 ppm belonging to COc1ccc(Nc2cc(F)cc(F)c2)nc1C(=O)NC1(c2cccc(Cl)n2)CCC1 [Compound P-177] and report it.
**A:** ≥ 80%

**Q:** Find the recorded pest or weed control at 200 ppm belonging to COc1ccc(Nc2ccnc(F)c2)nc1C(=O)NC(C)(C)C [Compound P-156] and report it.
**A:** ≥ 80%
